biological target: ZTNF4 (BLyS/BAFF) (human); experiment: other, solution radioligand binding with precipitation
Sequence (chain, as listed by the source): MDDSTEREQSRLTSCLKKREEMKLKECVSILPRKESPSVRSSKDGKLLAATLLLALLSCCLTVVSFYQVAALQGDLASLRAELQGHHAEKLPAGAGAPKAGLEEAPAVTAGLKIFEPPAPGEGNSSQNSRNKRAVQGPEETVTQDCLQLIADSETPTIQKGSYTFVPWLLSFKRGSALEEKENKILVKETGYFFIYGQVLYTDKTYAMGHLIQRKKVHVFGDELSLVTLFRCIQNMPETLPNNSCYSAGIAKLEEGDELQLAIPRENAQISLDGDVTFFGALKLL
measured_endpoint: Kd (nM)

INSERT INTO assay_data (binder, measure_unit, observed_value) VALUES
  ('TACI (d1-29, d111-154)-Fc5 (protein) MDAMKRGLCCVLLLCGAVFVSLSQEIHAELRRFRRAMRSCPEEQYWDPLLGTCMSCKTICNHQSQRTCAAFCRSLSCRKEQGKFYDHLLRDCISCASICGQHPKQCAYFCENKLRSEPKSSDKTHTCPPCPAPEAEGAPSVFLFPPKPKDTLMISRTPEVTCVVVDVSHEDPEVKFNWYVDGVEVHNAKTKPREEQYNSTYRVVSVLTVLHQDWLNGKEYKCKVSNKALPSSIEKTISKAKGQPREPQVYTLPPSRDELTKNQVSLTCLVKGFYPSDIAVEWESNGQPENNYKTTPPVLDSDGSFFLYSKLTVDKSRWQQGNVFSCSVMHEALHNHYTQKSLSLSPGK', 'nM', 0.115);
